Ref: ChEMBL document CHEMBL4130379

test system: HT-1080; test: Antiproliferative activity against human HT1080 cells after 72 hrs by MTT assay; type: functional, cell-based; conditions: HT-1080, 72 h
Experimental readout: IC50 (µM)

As a guide, the following entries are already answered.
COc1ccc(-c2nn3c(-c4ccc5c(c4)OCO5)nnc3s2)cc1[N+](=O)[O-]: 30.3
COc1ccc(-c2nn3c(-c4cc(OC)c(OC)c(OC)c4)nnc3s2)cc1[N+](=O)[O-]: 30.2

(P) COc1ccc(-c2nn3c(-c4ccc(OC)c(OC)c4OC)nnc3s2)cc1[N+](=O)[O-]
(Q) COc1ccc(-c2nn3c(-c4ccc(OC)c(OC)c4OC)nnc3s2)cc1N
Of the two listed items, P and Q , which carries the larger IC50 figure? Record your answer as the label of the chosen record. P
